# Test system: K4 kissing-loop RNA reporter;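 note: bound reporter read as fluorescence of individual clusters on recovered sequencing chips by microscopy, with normalized cluster intensities fitted with a binding model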
# experiment.notes: apparent KD of K4 kissing-loop reporter; higher = weaker reporter binding
# setup.conditions: Eterna round: R107; input ligand: theophylline 20 uM
We use 200 nM as the dividing line for apparent KD of K4 kissing-loop reporter: on or above the line is True, below is False.

Some entries whose results are on file:
sequence_string="UAUCUAUGCUCGGCCGCCACUAGGACCGGGAGGUAACUAGUGAUGUUAGUAUCUUCGGCCGCCACUAGGACCGGGAGUGUAGAUA [KL-SSTryp-B17 #DoubleAptamer]" system="K4 kissing-loop RNA reporter" label=False
sequence_string="CGCGCUGGUUGAGAGGUUGGCGCGAAUGAUACCAGUAUAUAAGAAUACCCUUGGCAGCAUAAGAAAGAUAUAGUGAUGUUGUAUA [SSTheophA.H]" system="K4 kissing-loop RNA reporter" label=True
sequence_string="GGUCUGCCGCAGUGAUGUUGCUGGCAUACACGAGGACCGGUACGGCCGCCACUCGAUGCUCCAAGAACCACCAAUCUUCGGUAUC [theeternabot_sameState_KL_Trp_A_48]" system="K4 kissing-loop RNA reporter" label=True
sequence_string="AUUUUUUACAGAAGGAGCGUGUUUUUAUAAUCAUUUAUCUUAGCGAGUGAUGUUCGCUUUACACAGGUAGGUCGCUGUUUAUUUA [JR_Nu_ExcArginiB_Sub028]" system="K4 kissing-loop RNA reporter" label=False
sequence_string="GUAUCGCUAGGAGGAUAUUUCGUUUUUCAUAGCAAUGGCUAUGCGGAGUGAUGUUCCGAUUUACCGAAAGAAGGCCUAGUGAUAC [FMN B 25]" system="K4 kissing-loop RNA reporter" label=False
sequence_string="GGCGGCCGCGCGUAAGCGCGGCCGGCCGAUACCAGCGCGACGGCGCGCCCUUGGCAGCGGCGCCGAGUGAUGUUCGGCCUGCCGG [#2 Same State - Theophylline A Attempt #17 (HarryS)]" system="K4 kissing-loop RNA reporter" label=True
sequence_string="UGAGUUAGACAAAAGUCUAGCUCUGGUGAAGGAGCGUCCGAAAGGACAGGUAGGUCGCACCACCUGAGUGAUGUUCAGAAUCCUU [KL-SSArg-A22]" system="K4 kissing-loop RNA reporter" label=True

Does the reported apparent KD of K4 kissing-loop reporter for UUGCAUGCUAGGGAAACCUAGCAUGCAUGCCGAGGACCGGUACGGCCGCCACUCGAACGAGUGAUGUUCGUUGACCAAAAUAAAA fall at or above the 200 nM mark?
True
